# Tested on: MDA-MB-435 melanoma
# experiment-summary: NCI-60 one-dose screen, 48 h (100 = growth as untreated, 0 = no growth, -100 = all killed)
# run-conditions: 10 µM unless noted
About 83,000 compounds went through this panel and 20% of them were active in at least one assay; those are over-represented in the sample as a whole.
# reported growth; entries follow
Numbers only here, please. The scale is %.

Qu. # growth lookup, item O=C(c1ccccc1)c1cc2ccccc2oc1=O
Ans. 109

Qu. # growth lookup, item CC(O)C(O)C(O)C(O)C(O)C(=O)NNc1ccccc1 (stereo not given)
Ans. 86.4

Qu. Report growth for CN1CCC(CN2c3ccccc3Sc3ccccc32)C1 (stereo not given) please.
Ans. 88.5

====

# System: TK-10 renal
# experiment-summary: NCI-60 one-dose screen, 48 h
# run-conditions: 10 µM unless noted
This is part of a sample that, as a whole, favours compounds with a hit. Of some 83,000 tested, about 20% had one in any assay. The source made the active and inactive calls. How the source made its calls: active means growth percent below 10; inactive means the rest.
Allowed answers: active, inactive

Check out these entries, answers already filled in.
Cc1cc(C(=O)c2ccc(Cl)cc2)ccc1O
inactive
C[C@@]1(CO)[C@H](O)CC[C@@]2(C)[C@H]1CC[C@H]1C[C@@H]3C[C@@]12CC[C@@]3(O)COC(=O)CN
inactive

Qu. How did this test come out for Oc1ccc2c(c1)CCc1ccccc1-2 ?
Ans. inactive

Qu. Please let me know the test result on file for COc1cc(-c2ccc(-[n+]3nc(-c4ccc([N+](=O)[O-])cc4)nn3-c3ccc([N+](=O)[O-])cc3)c(OC)c2)ccc1-[n+]1nc(-c2ccc([N+](=O)[O-])cc2)nn1-c1ccc([N+](=O)[O-])cc1 .
Ans. active

Qu. Query: recorded result category for S=C=Nc1ccc(N2CCOCC2)cc1 in this test
Ans. inactive

Qu. Outcome logged for Cc1ccccc1N=C(N)Nc1ccccc1C (tested in a mixture with another compound) in this assay:
Ans. inactive

Qu. # lookup: test call for CCCCCCCCCCCCCCCCCC[S+](C)CC (stereo unspecified)
Ans. active

Qu. Kindly provide the recorded test outcome for the following molecule: CCOC(=O)c1c(C)[nH]c2ccc(O)cc12
Ans. inactive

Qu. State the result this test recorded for NC(=S)N/N=C\c1nccc2c(N)cccc12 .
Ans. inactive

Qu. Answer briefly: the call reported for O=S(=O)(O)c1cnccn1 in this assay.
Ans. inactive

Qu. Hi, sorry to bother you, what did the test record for Cn1c(COC(=O)NC2CCCCC2)c(COC(=O)NC2CCCCC2)c2ccc3cc(Cl)c(Cl)cc3c21 ?
Ans. active

Qu. Test call, this molecule: O=C(O)c1ccc2c(c1)C(=O)c1ccccc1C2=O
Ans. inactive

Qu. How did this test come out for CCCN(CCC)C(=O)c1ccc(C)cc1 ?
Ans. inactive

====

# Tested on: IGROV1 ovarian
# experiment-summary: NCI-60 one-dose screen, 48 h (100 = growth as untreated, 0 = no growth, -100 = all killed)
# run-conditions: 10 µM unless noted
This is part of a sample that, as a whole, favours compounds with a hit. Of some 83,000 tested, about 20% had one in any assay.
Label t for high-side growth (at or above 80%) and f for low-side growth (below it).

Field: example entries. Status: answers known.
COc1ccc2nc3cc(Cl)ccc3c(NCCCCCN3CCCCC3)c2c1
f
CCCCCC/C=C1\CCC(CN2CCCC2)C1=O (configuration not stated)
t
Cc1nnc(N/N=C/c2ccc([N+](=O)[O-])o2)[nH]c1=O
f
Oc1c(Cl)cc(Cl)cc1C=NCC1CCC(CN=Cc2cc(Cl)cc(Cl)c2O)CC1 (configuration not stated)
f
Nc1ccc(-c2ccc(N)c(S(=O)(=O)O)c2)cc1S(=O)(=O)O
t
CN(C)c1ccc(/C=C/c2sc3ccc4ccccc4c3[n+]2C)cc1
f
O=C1/C(=C/c2ccccn2)CCc2ccccc21
t
CCCCCCCCC(=O)OCCCC(CCC(CCC1CCCO1)OC(=O)CCCCCCCC)OC(=O)CCCCCCCC (configuration not stated)
t
CN(Cc1ccccc1)c1ccc(SC#N)cc1
t
CCOc1ccc(C(CN2CCOCC2)C(C)=O)cc1OC (configuration not stated)
t

Qu. Hi team, for Nc1cccc2cccc([N+](=O)[O-])c12 , is the recorded growth at or above 80%?
Ans. t

Qu. Could you verify whether the entry Cc1onc(-c2ccccc2)c1C(=O)N/N=C/c1cc(Cl)cc(Cl)c1O shows growth of no less than 80%?
Ans. f

Qu. Form field: growth at least 80%? Entry: CC(=O)N1CC(=O)NC1=S
Ans. t

Qu. hey, is growth for this one >= 80%? COc1cc(-c2ccc(-[n+]3nc(-c4ccc([N+](=O)[O-])cc4)nn3-c3ccc([N+](=O)[O-])cc3)c(OC)c2)ccc1-[n+]1nc(-c2ccc([N+](=O)[O-])cc2)nn1-c1ccc([N+](=O)[O-])cc1
Ans. f

Qu. API: above_or_equal(metric=growth, cutoff=80%) for item CCN(CC)CC(O)CNc1ccc(NCC2CO2)c2c1C(=O)c1ccccc1C2=O (configuration not stated)
Ans. f

Qu. Has CCN(CC)c1ccc(/C=C\C(=O)c2ccc(NC(C)=O)cc2)cc1 a recorded growth greater than or equal to 80%?
Ans. f

Qu. Given the entry c1csc(-c2[nH]nc3c2CCc2ccccc2-3)c1 , answer whether its growth meets or surpasses 80%.
Ans. f

Qu. # check: growth of O=C(/C=C/c1ccccc1)c1ccccc1O is greater than or equal to 80%
Ans. f

====

# Test system: MCF7 breast
# experiment-summary: NCI-60 one-dose screen, 48 h (100 = growth as untreated, 0 = no growth, -100 = all killed)
# run-conditions: 10 µM unless noted
# Description: Growth inhibition of the MCF7 human tumor cell line is measured as a screen for anti-cancer activity. Cells are grown in 96 well plates and exposed to the test compound for 48 hours. Compounds are tested at a single concentration, which is 10^-5 M for most compounds. The reported endpoint is percent growth (GI% or GIPRCNT), where numbers from 0 - 100% represent growth inhibition, and numbers from -100% - 0 represent cell death. For example, a value of 40 represents 60% growth inhibition. […]
About 83,000 compounds went through this panel and 20% of them were active in at least one assay; those are over-represented in the sample as a whole.
quantity: growth (%)
Give a bare numeral; the unit % is implied.

Solved cases below.
O=C(CCl)N(c1ccccc1)c1ccccc1
102
CC(=O)N1CC(=O)NC1=S
94.1
CCCCCCCCCCCCCCCCCC1=NCCCN1CCO
86.7
CCOc1ccc(Nc2nc3c(s2)C(=O)c2ccccc2C3=O)cc1
42.9
COc1ccc(C(Cn2ccnc2)Sc2ccc(Cl)c(Cl)c2)cc1 (stereo not drawn)
79.6
CN(C)c1ccc(/C=C/c2sc3ccc4ccccc4c3[n+]2C)cc1
-9.73
CCCCCCCCCCCC[n+]1ccc2ccccc2c1
-10.3
O=C1c2ccccc2C(=O)c2c(O)c(Cl)cc(O)c21
49.9
Cc1cc(=O)oc2cc(O)cc(O)c12
98
Cc1cc(C(=C2C=CC(=Nc3ccccc3)C=C2)c2ccc(Nc3ccccc3)cc2)ccc1N
-44.3

Qu. # lookup: growth of CCOC(=O)C1(C)CCCC1N (stereo not drawn)
Ans. 104

Qu. Using the record for CCOc1ccc2c(c1)/C(=C\C=C\C1CC(C)C3CC(OCC)CCC3N1CC)CC(C)N2CC (stereo not drawn) , report its growth.
Ans. 3.06

Qu. Name the reported growth value associated with the compound CCCCCCCCCCCC[N+]1(CCCCCCCCCCCC)CCCC(C)C1 (stereo not drawn)
Ans. -88.9

Qu. Returns the measured growth for the input compound. Input: COC(=O)c1ccc(=O)c2nc3/c(=C/O)c(O)cc(=O)c3[nH]c12
Ans. 2.95

Qu. Give the measured growth of O=C(CCl)N1c2ccccc2Sc2c1ccc1ccccc21 .
Ans. 66.8

Qu. Name the reported growth value associated with the compound CC(=O)C1Cc2ccccc2C1=O (stereo not drawn)
Ans. 95.4

Qu. Entry under review: c1ccc(C2NCCNC2c2ccccc2)cc1 (stereo not drawn) . Reported growth?
Ans. 103

Qu. Record request: growth value, item Cc1oc2c(C)c3oc(=O)cc(C)c3cc2c1CCl
Ans. 49

Qu. Find the recorded growth belonging to CCN(CC)CCNc1ccc([N+](=O)[O-])c2sc3ccccc3c(=O)c12 and report it.
Ans. 8.95

Qu. # query: growth of entry Nc1cccc2cccc([N+](=O)[O-])c12
Ans. 86.6

Qu. # input compound: CC(C)Nc1ccc(Nc2ccc(NC(C)C)cc2)cc1 ; wanted: its growth
Ans. 28.9

Qu. Please report the recorded growth for COc1cc(-c2ccc(-[n+]3nc(-c4ccc([N+](=O)[O-])cc4)nn3-c3ccc([N+](=O)[O-])cc3)c(OC)c2)ccc1-[n+]1nc(-c2ccc([N+](=O)[O-])cc2)nn1-c1ccc([N+](=O)[O-])cc1 .
Ans. -65

Qu. growth for NCCCN(CCCN)CCCNCc1c2ccccc2c(CNCCCN(CCCN)CCCN)c2ccccc12 ?
Ans. 97.1
